- Assay overview: Functional assay to measure dose dependent changes in cell viability from drug treatment in Vero E6 miRFP670 cells (cotreated with P-gp inhibitor, CP100356) that are infected with Dengue virus type 2 New Guinea C. […] Cytotoxicity is reported via via analysis of DAPI count using high-content imager. The assay has been performed by KU Leuven.
- Type: toxicity, cell-based, Vero C1008
- Experimental conditions: chlorocebus sabaeus, with CP100356 (P-gp inhibitor, concentration not stated); p-gp concentration 500 nM
Please assign no whenever CC50 is at or above 7 µM, and yes whenever it is below.

Answered cases to consult:
INSERT INTO measurements (line_notation, group) VALUES
  ('CNC(=O)[C@H](Nc1ccc2c(c1)CNC2)c1cc(Cl)cc2[nH]c(-c3ccccc3)nc12', 'no'),
  ('COC(=O)CNC(=O)[C@H](Nc1ccc2c(c1)CNC2)c1cc(Cl)cc(C2CC2)c1', 'yes'),
  ('O=C(Nc1ccc2c(c1)CNC2)c1cc(F)cc(-c2c[nH]c(=O)c(F)c2)c1', 'no'),
  ('O=C(Nc1cc(Cl)cc(C(=O)Nc2cccc(-n3nn[nH]c3=O)c2)c1)OCc1ccccc1', 'no'),
  ('O=C(Nc1cc(Cl)cc([C@H]2C[C@@H]2c2cccc(C3CCNCC3)c2)c1)OCc1ccccc1', 'yes');

We next turn to a different compound, shown below.
[Q] Identify whether the compound "O=C(Nc1ccc2c(c1)CNC2)c1cc(Br)cc2[nH]ncc12" records CC50 below 7 µM.
[A] no
